Entries and their pIC50
- assay: Inhibition of FTase
pIC50: −log10 of the molar value.
quantity: pIC50

* N#Cc1ccc(Cn2cncc2CN2CCCN(C(=O)c3ccc4ccccc4c3)CC2)cc1 | 7.46
* CC[C@H](C)[C@@H](CO[C@@H](Cc1ccccc1)C(=O)N[C@@H](CCS(C)(=O)=O)C(=O)OC(C)C)NC[C@@H](N)CS | 7.57
* CC(C)CC(=O)N1CCCN(Cc2cncn2Cc2ccc(C#N)cc2)CC1 | 6.69
* N#Cc1ccc(Cn2cncc2CN2CCCN(C(=O)c3ccccc3-c3ccccc3)CC2)cc1 | 7.59
* N#Cc1ccc(Cn2cncc2CN2CCC(c3ccccc3)N(C(=O)c3ccc(Cl)cc3Cl)CC2)cc1 (stereo not given) | 6.42

* * *

- assay: Inhibition of FTase
pIC50: −log10 of the molar value.
quantity: pIC50

* N#Cc1ccc(Cn2cncc2CN2CCN(C(=O)c3ccc(Cl)cc3Cl)CCC2c2ccccc2)cc1 (stereo not drawn) | 7.68
* N#Cc1ccc(Cn2cncc2CN2CCCN(C(=O)c3ccccc3F)CC2)cc1 | 6.85
* N#Cc1ccc(Cn2cncc2CN2CCC(c3ccccc3)N(C(=O)c3ccccc3-c3ccccc3)CC2)cc1 (stereo not drawn) | 7.24

* * *

Entries and their inhibition at 100 µM
- Tested on: PC-3
- assay: Anticancer activity against hormone-resistant human PC3 cells assessed as cell proliferation at 100 uM after 72 hrs by MTT assay
- Type: functional
- protocol.conditions: PC-3, 72 h
quantity: inhibition at 100 µM (%)

* N#Cc1ccc(Cn2cncc2CN2CCCN(C(=O)c3ccc(F)cc3)CC2)cc1 | 40
* N#Cc1ccc(Cn2cncc2CN2CCCN(C(=O)c3ccncc3)CC2)cc1 | 12
* N#Cc1ccc(Cn2cncc2CN2CCC(c3ccccc3)N(C(=O)C3CCCCC3)CC2)cc1 (centres undefined) | 5
* N#Cc1ccc(Cn2cncc2CN2CCCN(C(=O)c3ccccc3Br)CC2)cc1 | 15

* * *

Entries and their IC50
- Test system: DU-145
- assay: Anticancer activity against hormone-resistant human DU145 cells assessed as cell proliferation after 72 hrs by MTT assay
- Assay type: functional, cell-based
- protocol.conditions: DU-145, 72 h
quantity: IC50 (µM)

- N#Cc1ccc(Cn2cncc2CN2CCN(C(=O)c3ccc(Cl)cc3Cl)CCC2c2ccccc2)cc1 (centres undefined): 44
- N#Cc1ccc(Cn2cncc2CN2CCC(c3ccccc3)N(C(=O)c3ccccc3)CC2)cc1 (centres undefined): 75
- N#Cc1ccc(Cn2cncc2CN2CCCN(C(=O)c3cccc4ccccc34)CC2)cc1: 44
- N#Cc1ccc(Cn2cncc2CN2CCCN(C(=O)c3ccc4ccccc4c3)CC2)cc1: 52
- N#Cc1ccc(Cn2cncc2CN2CCN(C(=O)C34CC5CC(CC(C5)C3)C4)CCC2c2ccccc2)cc1 (centres undefined): 32
- N#Cc1ccc(Cn2cncc2CN2CCCN(C(=O)c3cccc(-c4ccccc4)c3)CC2)cc1: 42
- N#Cc1ccc(Cn2cncc2CN2CCCN(C(=O)c3ccccc3-c3ccccc3)CC2)cc1: 43
- N#Cc1ccc(Cn2cncc2CN2CCC(c3ccccc3)N(C(=O)C34CC5CC(CC(C5)C3)C4)CC2)cc1 (centres undefined): 42
- CC[C@H](C)[C@@H](CO[C@@H](Cc1ccccc1)C(=O)N[C@@H](CCS(C)(=O)=O)C(=O)OC(C)C)NC[C@@H](N)CS: 78
- N#Cc1ccc(Cn2cncc2CN2CCC(c3ccccc3)N(C(=O)c3cccc4ccccc34)CC2)cc1 (centres undefined): 54
- N#Cc1ccc(Cn2cncc2CN2CCN(C(=O)C3CCCCC3)CCC2c2ccccc2)cc1 (centres undefined): 29
- N#Cc1ccc(Cn2cncc2CN2CCC(c3ccccc3)N(C(=O)c3ccccc3-c3ccccc3)CC2)cc1 (centres undefined): 47
- N#Cc1ccc(Cn2cncc2CN2CCCN(C(=O)C34CC5CC(CC(C5)C3)C4)CC2)cc1: 44
- N#Cc1ccc(Cn2cncc2CN2CCCN(C(=O)c3ccc(-c4ccccc4)cc3)CC2)cc1: 47

Sourced from ChEMBL document CHEMBL1687900
